System: Quadruplex DNA
ASSAY_METHOD_TEXT: Binding affinity to G-quadruplex telomeric DNA F21T (5'-duplex GGG TTAGGG TTAGGG TTAGGG-3') (unknown origin) assessed as stabilization by measuring change in melting temperature at 10 uM in potassium buffer by FRET melting assay
Assay type: nucleic-acid assay
REPORTED_ENDPOINT: ΔTm (°C)

(A) C[n+]1ccc(N2C(=O)c3ccc4c5c(ccc(c35)C2=O)C(=O)N(c2cc[n+](C)cc2)C4=O)cc1
(B) CC(CCN1C(=O)c2ccc3c4c(ccc(c24)C1=O)C(=O)N(CCC(C)N1CCN(C)CC1)C3=O)N1CCN(C)CC1 (configuration not stated)
Which of these two has the smaller recorded ΔTm: A or B ? # answer = label of selected item
A
(A: -0.4 °C, B: 28.5 °C)

(A) C[n+]1cccc2c(N3C(=O)c4ccc5c6c(ccc(c46)C3=O)C(=O)N(c3cccc4c3ccc[n+]4C)C5=O)cccc21
(B) C[n+]1cc(N2C(=O)c3ccc4c5c(ccc(c35)C2=O)C(=O)N(c2cc3ccccc3[n+](C)c2)C4=O)cc2ccccc21
(C) CN1CCN(CCN2C(=O)c3ccc4c5c(ccc(c35)C2=O)C(=O)N(CCN2CCN(C)CC2)C4=O)CC1
(D) C[n+]1cccc2cc(N3C(=O)c4ccc5c6c(ccc(c46)C3=O)C(=O)N(c3ccc4c(ccc[n+]4C)c3)C5=O)ccc21
Endpoint returns the given molecules ordered by ascending ΔTm. // format: requested-order list of labels
B, A, D, C
(B: 0.3 °C, A: 2 °C, D: 4.6 °C, C: 21.5 °C)

---

ASSAY_METHOD_TEXT: Binding affinity to hairpin duplex DNA F10T (unknown origin) assessed as stabilization by measuring change in melting temperature at 10 uM in potassium buffer by FRET melting assay
REPORTED_ENDPOINT: ΔTm (°C)

{"MOLECULE": "C[n+]1ccc(CN2C(=O)c3ccc4c5c(ccc(c35)C2=O)C(=O)N(Cc2cc[n+](C)cc2)C4=O)cc1", "REPORTED_ENDPOINT": "ΔTm", "EXPERIMENTAL_RESULT": 5}
{"MOLECULE": "CN1CCN(CCN2C(=O)c3ccc4c5c(ccc(c35)C2=O)C(=O)N(CCN2CCN(C)CC2)C4=O)CC1", "REPORTED_ENDPOINT": "ΔTm", "EXPERIMENTAL_RESULT": 2.7}
{"MOLECULE": "C[n+]1cccc(N2C(=O)c3ccc4c5c(ccc(c35)C2=O)C(=O)N(c2ccc[n+](C)c2)C4=O)c1", "REPORTED_ENDPOINT": "ΔTm", "EXPERIMENTAL_RESULT": 0}
{"MOLECULE": "C[n+]1ccc(N2C(=O)c3ccc4c5c(ccc(c35)C2=O)C(=O)N(c2cc[n+](C)cc2)C4=O)cc1", "REPORTED_ENDPOINT": "ΔTm", "EXPERIMENTAL_RESULT": -0.2}

(P) C[n+]1cccc2c(N3C(=O)c4ccc5c6c(ccc(c46)C3=O)C(=O)N(c3cccc4c3ccc[n+]4C)C5=O)cccc21
(Q) CN1CCN(C(C)(C)CN2C(=O)c3ccc4c5c(ccc(c35)C2=O)C(=O)N(CC(C)(C)N2CCN(C)CC2)C4=O)CC1
(R) C[n+]1cc(N2C(=O)c3ccc4c5c(ccc(c35)C2=O)C(=O)N(c2cc3ccccc3[n+](C)c2)C4=O)cc2ccccc21
(S) O=C1c2ccc3c4c(ccc(c24)C(=O)N1CC(c1ccccn1)N1CCOCC1)C(=O)N(CC(c1ccccn1)N1CCOCC1)C3=O (centres undefined)
(T) O=C1c2ccc3c4c(ccc(c24)C(=O)N1CCCN1CCOCC1)C(=O)N(CCCN1CCOCC1)C3=O
Endpoint returns the given molecules ordered by ascending ΔTm. // format: requested-order list of labels
R, Q, S, P, T
(R: 0.1 °C, Q: 0.2 °C, S: 0.3 °C, P: 0.5 °C, T: 1 °C)

These data points were gathered from ChEMBL document CHEMBL5108010.
